# Tested on: SUDHL5
# assay_procedure: Induction of cytotoxicity (Assay 6), SUDHL5
# test_conditions: read-out: Cytotox SUDHL5 IC50 (median); SUDHL5 cells, 5 hours, CellTiter-Glo
Give pIC50 for every item shown.
One number for each entry, as −log10 of the molar value.

molecule="Cc1c2c(nn1C)N(C)CCCCCn1c(C(=O)O)c(CCCOc3cccc4cc(F)ccc34)c3ccc(Cl)c-2c31 (racemic) [Example 74]" quantity=pIC50 obs_value=6.00
molecule="CCc1c2c(nn1C)COCCCCn1c(C(=O)O)c(CCCOc3cccc4cc(F)ccc34)c3ccc(Cl)c-2c31 (single isomer, unassigned; enantiomer 1) [Example 37]" quantity=pIC50 obs_value=6.70

Count: 3. Required value per item: pIC50.
1. Cc1c2c(nn1C)COCC(F)(F)CCn1c(C(=O)O)c(CCCOc3cccc4ccccc34)c3ccc(Cl)c-2c31 (single isomer, unassigned; enantiomer 2) [Example 57]
2. Cc1c2c(nn1C)OCCCCCn1c(C(=O)O)c(CCCOc3cccc4cc(F)ccc34)c3ccc(Cl)c-2c31 (racemic) [Example 83]
3. Cc1c2c(nn1C)N(C)CCCCCn1c(C(=O)O)c(CCCOc3cccc4cc(F)ccc34)c3ccc(Cl)c-2c31 [Example 76]

Result block:
[5.16, 6.18, 5.52]

====

# study_system: BCL-2 (Homo sapiens (Human))
# Sequence (P10415 other isoform, or with tags, fused parts or gaps): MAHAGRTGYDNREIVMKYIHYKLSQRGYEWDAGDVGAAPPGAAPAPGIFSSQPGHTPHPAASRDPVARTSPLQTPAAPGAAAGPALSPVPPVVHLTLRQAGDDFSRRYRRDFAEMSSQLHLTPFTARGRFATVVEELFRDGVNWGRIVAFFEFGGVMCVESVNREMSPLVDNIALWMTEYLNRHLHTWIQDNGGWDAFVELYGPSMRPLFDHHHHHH
# assay_procedure: Protein-protein interaction assay BCL-2/Bad BH3 peptide (BCL-2 Assay, TR-FRET)
# test_conditions: read-out: BCL-2 Assay IC50 (median)
pIC50: −log10 of the molar value.
quantity: pIC50

Consider the following illustrative entries.
molecule="CCc1c2c(nn1C)N(C)CCCCCn1c(C(=O)O)c(CCCOc3cccc4cc(F)ccc34)c3ccc(Cl)c-2c31 (racemic) [Example 77]" study_system="BCL-2 (Homo sapiens (Human))" obs_value=4.77
molecule="Cc1c2c(nn1C)N(C)CCCCCn1c(C(=O)O)c(CCCOc3cccc4ccccc34)c3ccc(Cl)c-2c31 (single isomer, unassigned) [Example 73]" study_system="BCL-2 (Homo sapiens (Human))" obs_value="< 4.70"
molecule="Cc1c2c(nn1C)N(C)CCCCCn1c(C(=O)O)c(CCCOc3cccc4cc(F)ccc34)c3ccc(Cl)c-2c31 [Example 76]" study_system="BCL-2 (Homo sapiens (Human))" obs_value="< 4.70"
molecule="CCc1c2c(nn1C)N(C)CCCCCn1c(C(=O)O)c(CCCOc3cccc4cc(F)ccc34)c3ccc(Cl)c-2c31 (single isomer, unassigned; enantiomer 1) [Example 78]" study_system="BCL-2 (Homo sapiens (Human))" obs_value="< 4.70"
molecule="Cc1c2c(nn1C)N(C)CCCCCn1c(C(=O)O)c(CCCOc3cccc4ccccc34)c3ccc(Cl)c-2c31 (racemic) [Example 71]" study_system="BCL-2 (Homo sapiens (Human))" obs_value="< 4.70"
molecule="Cc1c2c(nn1C)N(C)CCCCCn1c(C(=O)O)c(CCCOc3cccc4cc(F)ccc34)c3ccc(Cl)c-2c31 [Example 75]" study_system="BCL-2 (Homo sapiens (Human))" obs_value=4.72
molecule="Cc1c2c(nn1C)N(C)CCCCCn1c(C(=O)O)c(CCCOc3cccc4cc(F)ccc34)c3ccc(Cl)c-2c31 (racemic) [Example 74]" study_system="BCL-2 (Homo sapiens (Human))" obs_value=4.72

Next item in the queue.
Entry CCc1c2c(nn1C)N(C)CCCCCn1c(C(=O)O)c(CCCOc3cccc4cc(F)ccc34)c3ccc(Cl)c-2c31 (single isomer, unassigned; enantiomer 2) [Example 79] — recorded pIC50 = < 4.70

====

Please respond with reported IC50 for every item in the list.
# System: SUDHL5
# assay_procedure: Induction of cytotoxicity (Assay 6), SUDHL5
# test_conditions: read-out: Cytotox SUDHL5 IC50 (median); SUDHL5 cells, 5 hours, CellTiter-Glo
Give the value; after it, write the unit.

Solved entries (count: 2):
compound="Cc1c2c(nn1C)N(C)CCCCCn1c(C(=O)O)c(CCCOc3cccc4ccccc34)c3ccc(Cl)c-2c31 (single isomer, unassigned) [Example 72]" quantity=IC50 obs_value="0.88 µM"
compound="CCc1c2c(nn1C)N(C)CCCCCn1c(C(=O)O)c(CCCOc3cccc4cc(F)ccc34)c3ccc(Cl)c-2c31 (single isomer, unassigned; enantiomer 1) [Example 78]" quantity=IC50 obs_value="0.31 µM"

Kindly give each listed record's IC50.
1. Cc1c2c(nn1C)COCC1CC1Cn1c(C(=O)O)c(CCCOc3cccc4ccccc34)c3ccc(Cl)c-2c31 (single isomer, unassigned; stereoisomer 1) [Example 65]
2. Cc1c2c(nn1C)COCCCCn1c(C(=O)O)c(CCCOc3cccc4ccccc34)c3ccc(Cl)c-2c31 (single isomer, unassigned; enantiomer 1) [Example 26]
3. Cc1c2c(nn1C)CN(CC(F)(F)F)CCCCn1c(C(=O)O)c(CCCOc3cccc4cc(F)ccc34)c3ccc(Cl)c-2c31 (single isomer, unassigned; enantiomer 1) [Example 59]
4. CCc1nn(CCN2CCOCC2)c2c1-c1c(Cl)ccc3c(CCCOc4cccc5ccccc45)c(C(=O)O)n(c13)CCCCN(C)C2 (single isomer, unassigned; enantiomer 2) [Example 47]
5. Cc1c2c(nn1C)COCCCCn1c(C(=O)O)c(CCCOc3cccc4ccccc34)c3ccc(Cl)c-2c31 (single isomer, unassigned; enantiomer 2) [Example 27]
6. Cc1nn(C)c2c1-c1c(Cl)ccc3c(CCCOc4cccc5ccccc45)c(C(=O)O)n(c13)CCCCOC2 (single isomer, unassigned; enantiomer 2)
7. CCc1c2c(nn1C)CN(C)CCCCn1c(C(=O)O)c(CCCOc3cccc4ccccc34)c3ccc(Cl)c-2c31 (single isomer, unassigned; enantiomer 2) [Example 24]

Result block:
1: 0.41 µM; 2: 0.46 µM; 3: 0.31 µM; 4: 10 µM; 5: 10 µM; 6: 26 µM; 7: 4.7 µM

Your task in this section: give IC50 for each listed record.
1. Cc1c2c(nn1C)CN(C)CCCCn1c(C(=O)O)c(CCCOc3cccc4cc(F)ccc34)c3ccc(Cl)c-2c31 (single isomer, unassigned; enantiomer 2) [Example 32]
2. CCc1c2c(nn1C)CN(C)CCCCn1c(C(=O)O)c(CCCOc3cccc4cc(F)ccc34)c3ccc(Cl)c-2c31 (single isomer, unassigned; enantiomer 2) [Example 7]

Result block:
1. 9.3 µM
2. 7.1 µM

====

# Tested on: SUDHL10
# assay_procedure: Induction of cytotoxicity (Assay 6), SUDHL10
# test_conditions: read-out: Cytotox SUDHL10 IC50 (median); SUDHL10 cells, 5 hours, CellTiter-Glo
Task for the reader: assign each of the following compounds its reported IC50.
One number for each entry, in µM.

// worked examples, IC50 included
compound="CCc1c2c(nn1C)COCCCCn1c(C(=O)O)c(CCCOc3cccc4ccccc34)c3ccc(Cl)c-2c31 (single isomer, unassigned; enantiomer 2)" quantity=IC50 value_units=µM obs_value=11
compound="CCc1c2c(nn1C)CN(C)CCCCn1c(C(=O)O)c(CCCOc3cccc4ccccc34)c3ccc(Cl)c-2c31 (single isomer, unassigned; enantiomer 2) [Example 24]" quantity=IC50 value_units=µM obs_value=7.4

Entry under test: CCc1nn(C)c2c1-c1c(Cl)ccc3c(CCCOc4cccc5cc(F)ccc45)c(C(=O)O)n(c13)CCCCN(C)C2 (single isomer, unassigned; enantiomer 2) [Example 41] . Its IC50 was 12
